From: ChEMBL document CHEMBL5579878

molecular target: Serine/threonine-protein phosphatase 5 (Homo sapiens, UniProt P53041, K430A); assay: Binding affinity to PP5 K430A mutant (unknown origin) assessed as dissociation constant by ITC analysis
Sequence (P53041 2-499 K430A limits assumed): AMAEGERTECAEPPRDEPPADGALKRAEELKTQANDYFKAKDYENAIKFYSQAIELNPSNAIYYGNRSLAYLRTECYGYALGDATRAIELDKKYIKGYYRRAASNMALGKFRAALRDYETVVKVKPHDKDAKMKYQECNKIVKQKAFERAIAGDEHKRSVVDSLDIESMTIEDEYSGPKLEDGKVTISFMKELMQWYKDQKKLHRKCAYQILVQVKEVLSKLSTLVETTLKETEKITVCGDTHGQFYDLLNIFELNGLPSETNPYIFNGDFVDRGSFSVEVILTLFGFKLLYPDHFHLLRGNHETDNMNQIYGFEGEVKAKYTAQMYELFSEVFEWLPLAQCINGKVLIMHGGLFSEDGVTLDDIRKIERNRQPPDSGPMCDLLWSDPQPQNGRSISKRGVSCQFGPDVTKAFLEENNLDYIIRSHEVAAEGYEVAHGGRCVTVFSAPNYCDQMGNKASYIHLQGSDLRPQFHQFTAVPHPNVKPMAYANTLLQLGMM
ATTRIBUTE MEASURED: Kd (µM)
Write the answer as a number in µM, unit excluded.

Lookup: Kd / Serine/threonine-protein phosphatase 5 (Homo sapiens, UniProt P53041, K430A) / `N=c1oc2cc(F)cc(F)c2cc1C(N)=S` 37.2

----------
Target: Serine/threonine-protein phosphatase 5 (Homo sapiens)
Sequence (whole entry): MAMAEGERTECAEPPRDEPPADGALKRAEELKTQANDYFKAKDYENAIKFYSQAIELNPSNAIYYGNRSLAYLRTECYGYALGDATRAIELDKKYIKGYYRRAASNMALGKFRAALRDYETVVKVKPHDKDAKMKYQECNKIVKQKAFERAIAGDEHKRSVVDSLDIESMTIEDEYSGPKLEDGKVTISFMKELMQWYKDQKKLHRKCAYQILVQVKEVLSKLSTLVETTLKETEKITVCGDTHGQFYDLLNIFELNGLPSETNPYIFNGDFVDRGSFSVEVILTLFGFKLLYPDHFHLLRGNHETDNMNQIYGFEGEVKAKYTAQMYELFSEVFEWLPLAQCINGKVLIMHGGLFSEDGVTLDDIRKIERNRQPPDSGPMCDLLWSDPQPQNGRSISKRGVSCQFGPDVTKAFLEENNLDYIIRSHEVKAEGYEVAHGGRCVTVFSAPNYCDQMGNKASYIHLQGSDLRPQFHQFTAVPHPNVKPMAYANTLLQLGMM
Assay: Activation of His-tagged human PP5 extracted from Escherichia coli BL21 using pNPP as substrate assessed as fold increase in phosphatase activity at 50 uM incubated for 30 mins by spectrophotometric analysis
Conditions: filed as activator
ATTRIBUTE MEASURED: fold change (FC)
// no unit, no text: just the number

| COMPOUND | MEASURED RESULT |
| --- | --- |
| COc1cc(Br)cc2cc(C(N)=S)c(=N)oc12 | 2.1 |
| N=c1oc2ccc3ccccc3c2cc1C(N)=S | 1.6 |
| N=c1oc2cc(F)c(F)cc2cc1C(N)=S | 1.7 |
| N=c1oc2c(F)ccc(F)c2cc1C(N)=S | 1.8 |
| N=c1oc2ccccc2cc1C(N)=S | 1.8 |

Below: the item to evaluate.
Please give the measured fold change (FC) for this compound: NC(=S)C1=Cc2cc(F)cc(F)c2OC1N (centres undefined) 1.8

----------
experiment: Half-life in Sprague-Dawley rat at 10 mg/kg, ip measured after 8 hrs by LC-MS/MS analysis; assay type: ADME, organism-based; conditions: in vivo
ATTRIBUTE MEASURED: half-life (h)
Write the answer as a number in h, unit excluded.

Please give the measured half-life for this compound: `N=c1oc2cc(F)cc(F)c2cc1C(N)=S` 1.59

----------
test system: HCT-116; assay: Antiproliferative activity against human HCT-116 cells assessed as inhibition of cell proliferation incubated for 72 hrs by CCK8 assay; format: functional, cell-based; conditions: HCT-116, 72 h
ATTRIBUTE MEASURED: IC50 (µM)
Write the answer as a number in µM, unit excluded.

Please give the measured IC50 for this compound: `CC(C)c1cc(C(=O)N2Cc3ccc(CN4CCN(C)CC4)cc3C2)c(O)cc1O` 0.0785

----------
biological target: Serine/threonine-protein phosphatase 5 (Homo sapiens); experiment: Binding affinity to His-tagged human PP5 phosphatase domain extracted from Escherichia coli BL21 assessed as dissociation constant by ITC analysis
ATTRIBUTE MEASURED: pKd
Recall that pKd is obtained by taking minus log10 of the concentration measured in molar.

Please give the measured pKd for this molecule: `N=c1oc2cc(F)cc(F)c2cc1C(N)=S` 6.09

----------
biological target: Serine/threonine-protein phosphatase 5 (Homo sapiens, UniProt P53041); assay: Binding affinity to full length His-tagged human PP5 extracted from Escherichia coli BL21 assessed as dissociation constant by ITC analysis
ATTRIBUTE MEASURED: pKd
Recall that pKd is obtained by taking minus log10 of the concentration measured in molar.

Please give the measured pKd for this molecule: `N=c1oc2cc(F)cc(F)c2cc1C(N)=S` 5.94

----------
Biological target: Serine/threonine-protein phosphatase 5 (Homo sapiens) (UniProt P53041)
Sequence (whole entry): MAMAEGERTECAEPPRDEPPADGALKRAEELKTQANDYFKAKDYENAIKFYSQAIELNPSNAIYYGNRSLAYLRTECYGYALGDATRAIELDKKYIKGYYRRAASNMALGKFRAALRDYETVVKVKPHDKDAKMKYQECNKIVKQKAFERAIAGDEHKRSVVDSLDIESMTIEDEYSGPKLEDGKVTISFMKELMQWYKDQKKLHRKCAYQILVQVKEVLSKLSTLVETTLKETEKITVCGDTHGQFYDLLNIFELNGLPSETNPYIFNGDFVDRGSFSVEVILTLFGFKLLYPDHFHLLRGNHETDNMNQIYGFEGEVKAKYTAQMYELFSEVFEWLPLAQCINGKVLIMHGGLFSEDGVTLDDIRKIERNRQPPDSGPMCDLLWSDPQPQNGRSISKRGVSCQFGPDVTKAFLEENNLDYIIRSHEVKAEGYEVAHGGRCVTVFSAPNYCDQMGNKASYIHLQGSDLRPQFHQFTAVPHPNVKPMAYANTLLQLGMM
Test: Activation of His-tagged human PP5 extracted from Escherichia coli BL21 using pNPP as substrate assessed as fold increase in phosphatase activity at 50 uM incubated for 30 mins by spectrophotometric analysis
Details: filed as activator
Outcome label depends on fold change (FC) relative to 2: at/above gives criterion met, below gives criterion not met.

Could you tell me if the measured fold change (FC) of `N=c1oc2cccc(F)c2cc1C(N)=S` reaches 2 or more? criterion not met

Could you tell me if the measured fold change (FC) of `COc1ccc2cc(C(N)=S)c(=N)oc2c1` reaches 2 or more? criterion not met

Could you tell me if the measured fold change (FC) of `N=c1oc2c(Br)cc(Br)cc2cc1C(N)=S` reaches 2 or more? criterion met

Could you tell me if the measured fold change (FC) of `N=c1oc2c(F)cc(F)cc2cc1C(=S)NC=O` reaches 2 or more? criterion met

Could you tell me if the measured fold change (FC) of `N=c1oc2cc(Br)ccc2cc1C(N)=S` reaches 2 or more? criterion met

Could you tell me if the measured fold change (FC) of `COc1ccc2oc(=N)c(C(N)=S)cc2c1` reaches 2 or more? criterion not met

Could you tell me if the measured fold change (FC) of `N=c1oc2ccc(O)cc2cc1C(N)=S` reaches 2 or more? criterion not met

Could you tell me if the measured fold change (FC) of `N=c1oc2cc(O)ccc2cc1C(N)=S` reaches 2 or more? criterion met
